target: human PAD4 (Homo sapiens); construct: human PAD4 (NM_012387), A2-P663, was PCR amplified; His-SUMO (N, cleaved yes); assay: In vitro PAD4 BAEE biochemical assay; conditions: BAEE substrate 3 mM, 5 nM PAD4, 2 mM calcium chloride; geometric mean of multiple experiments
Sequence (Q9UM07 2-663): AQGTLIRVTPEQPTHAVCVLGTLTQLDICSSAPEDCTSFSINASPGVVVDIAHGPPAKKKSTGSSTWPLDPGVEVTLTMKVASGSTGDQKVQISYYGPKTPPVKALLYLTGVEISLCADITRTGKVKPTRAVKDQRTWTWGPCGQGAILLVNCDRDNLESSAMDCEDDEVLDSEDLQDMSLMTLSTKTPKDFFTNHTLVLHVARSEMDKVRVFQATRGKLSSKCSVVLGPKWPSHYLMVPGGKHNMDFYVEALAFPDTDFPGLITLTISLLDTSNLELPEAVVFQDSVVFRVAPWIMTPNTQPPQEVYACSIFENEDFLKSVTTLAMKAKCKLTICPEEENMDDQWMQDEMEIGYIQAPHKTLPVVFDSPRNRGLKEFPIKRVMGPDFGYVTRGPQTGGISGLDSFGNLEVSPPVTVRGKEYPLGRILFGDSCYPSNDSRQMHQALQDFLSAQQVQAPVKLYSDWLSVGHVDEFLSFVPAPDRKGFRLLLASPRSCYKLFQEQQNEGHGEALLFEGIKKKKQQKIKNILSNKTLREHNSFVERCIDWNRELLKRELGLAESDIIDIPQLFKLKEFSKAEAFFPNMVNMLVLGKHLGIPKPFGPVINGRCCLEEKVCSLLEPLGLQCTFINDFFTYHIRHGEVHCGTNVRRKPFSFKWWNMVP
pIC50: −log10 of the molar value.
Criterion: pIC50 meeting or surpassing 7. Met: yes. Not met: no.

{"COMPOUND": "C[C@H]1NC(=O)[C@@H]2C[C@H]2CCCC(F)(F)Cn2c(-c3nc4cc(C(=O)N5C[C@H](N)[C@@H]6CC[C@H]5C6)c(F)cc4n3C3CC3)cc3ccc1nc32", "CATEGORY_LABEL": "yes"}
{"COMPOUND": "COc1cc2c(cc1C(=O)N[C@H]1CNCC[C@@H]1F)nc(-c1cc3ccc4nc3n1CCCCCCC(C)(C)C(=O)N[C@@H]4C)n2C", "CATEGORY_LABEL": "no"}
{"COMPOUND": "C[C@H]1NC(=O)c2ccc(Cl)nc2CC[C@H]2C[C@H]2Cn2c(-c3nc4cc(C(=O)N5C[C@H](N)[C@@H]6CC[C@H]5C6)cc(F)c4n3C3CC3)cc3ccc1nc32", "CATEGORY_LABEL": "yes"}
{"COMPOUND": "C[C@H]1NC(=O)[C@@H]2C[C@@]2(F)CCCCCn2c(-c3nc4cc(C(=O)N5C[C@H](N)[C@@H]6CC[C@H]5C6)cc(F)c4n3C3C[C@H]3F)cc3ccc1nc32 (stereo partly drawn)", "CATEGORY_LABEL": "yes"}
{"COMPOUND": "COc1cc(C(=O)N2[C@H]3CC[C@@H]2[C@H](N)C3)cc2nc(-c3cc4ccc5nc4n3CCCC[C@H]3C[C@@H]3C(=O)N[C@@H]5C)n(C)c12", "CATEGORY_LABEL": "yes"}
{"COMPOUND": "COc1cc(C(=O)N2C[C@H](N)C[C@@H](F)[C@@H]2C)cc2nc(-c3cc4ccc5nc4n3CCCCCCC(C)(C)C(=O)N[C@@H]5C)n(C)c12", "CATEGORY_LABEL": "no"}
{"COMPOUND": "C[C@H]1NC(=O)[C@H]2[C@H](CCCCCn3c(-c4nc5cc(C(=O)N6C[C@H](N)[C@@H]7CC[C@H]6C7)cc(F)c5n4C4CC4)cc4ccc1nc43)C2(F)F", "CATEGORY_LABEL": "yes"}
